Test system: RPMI-8226 leukemia
Experiment: NCI-60 one-dose screen, 48 h
Conditions: 10 µM
This is part of a sample that, as a whole, favours compounds with a hit. Of some 83,000 tested, about 20% had one in any assay. Activity calls are given as the source filed them. How the source made its calls: active means growth percent below 10; inactive means the rest.
Please state which outcome applies, choosing from active, inactive

Assay result, entry O=C1Nc2ccc(Cl)cc2/C1=C/c1ccc(OCc2ccc(Br)cc2F)cc1 — outcome?
inactive

Assay result, entry O=C(O)CCCCCCCCCCN1C(=O)/C(=C/c2cnc(-c3ccc(Cl)cc3)s2)SC1=S — outcome?
inactive

Assay result, entry CCCn1c(=O)c2[nH]c(-c3ccc(OCc4nc5ccccc5[nH]4)cc3)nc2n(CCC)c1=O — outcome?
inactive

Assay result, entry Cc1ccc2nc(COc3ccc(C(=O)NNC(=S)NCCc4ccccc4)cc3)[nH]c2c1 — outcome?
inactive

Assay result, entry CC1(C)CC[C@]2(C(=O)N3CCOCC3)CC[C@]3(C)C(=CC[C@@H]4[C@@]5(C)CC[C@H](NCO)C(C)(C)[C@@H]5CC[C@]43C)[C@H]2C1 — outcome?
active

Assay result, entry O=C(COc1ccc(NC(=O)Nc2ccc(Cl)cc2)cc1)N=Nc1c(O)[nH]c2ccc([N+](=O)[O-])cc12 — outcome?
inactive

Assay result, entry O=C1CCC(N2Cc3cc(NC(=O)COc4ccccc4)ccc3C2=O)C(=O)N1 (centres undefined) — outcome?
inactive

Assay result, entry COc1ccc2[nH]cc(/C=N/Nc3ccc(Br)cn3)c2c1 — outcome?
active

Assay result, entry O=C(CSc1nnc(-c2c[nH]c3ccccc23)n1-c1ccccc1)c1ccc(Br)cc1 — outcome?
inactive

====

Could you please report measured growth for the items listed next?
System: DU-145 prostate
Assay: NCI-60 one-dose screen, 48 h (100 = growth as untreated, 0 = no growth, -100 = all killed)
Settings: 10 µM
The panel holds about 83,000 compounds, 20% with a hit somewhere; the sample as a whole holds those more often.
Please reply with the bare figure in % and do not write the unit itself.

growth in this record for Cc1ccc(-c2nc(Nc3ccc(C)c(S(N)(=O)=O)c3)c3ccccc3n2)cc1 : 35

growth in this record for O=C1NC(=NC2CCCCCC2)N/C1=C\c1ccc2ncoc2c1 : 31.1

growth in this record for CC1(c2ccccc2)NC(=O)N(CC(=O)Nc2ccc(C(=O)/C=C/C=C/c3ccccc3)cc2)C1=O (stereo not given) : 61.3

growth in this record for CNC(=O)c1cc(-c2ccc(NC(=O)Nc3ccc(C)cc3)cc2)nc2cccnc12 : 109

growth in this record for Cc1ccc(-c2ccc(SCC(=O)Nc3ccc(Cl)c(C(F)(F)F)c3)nn2)cc1 : 23.9

====

Tested on: MCF7 breast
Test: NCI-60 one-dose screen, 48 h
Settings: 10 µM
Compounds without any hit were thinned out: in the full panel of roughly 83,000, 20% have a hit. Activity calls are given as the source filed them. Rule for the calls: active = growth percent below 10; inactive = the rest.
Please state which outcome applies, choosing from active, inactive

Assay result, entry C#CCNC(=O)[C@]12CCC(C)(C)C[C@H]1C1=CC[C@@H]3[C@@](C)(CCC#N)[C@H](C(=C)C)CC[C@@]3(C)[C@]1(C)CC2 — outcome?
inactive

Assay result, entry COc1ccc(C(C)=C(c2ccc(OCCCN(C)C)cc2)c2ccc(OCCCN(C)C)cc2)cc1 — outcome?
active

Assay result, entry CCOP(=O)(OCC)O[C@H]1CC[C@]2(C)[C@H]3CC[C@@H]4[C@@H]([C@](C)(O)CCC=C(C)C)CC[C@@]4(C)[C@]3(C)CC[C@H]2C1(C)C — outcome?
active

Assay result, entry O=C(CSc1nnc(-c2ccc3nc(-c4ccccc4)[nH]c3c2)o1)Nc1ccc(Br)cc1 — outcome?
inactive

Assay result, entry COc1ccc(C(=O)/C=C/c2cc(F)cc(C(F)(F)F)c2)cc1S(N)(=O)=O — outcome?
active

Assay result, entry Cc1ccc(C(=O)N/C(=C2/OCCN2C)[P+](c2ccccc2)(c2ccccc2)c2ccccc2)cc1 — outcome?
inactive

Assay result, entry COc1ccccc1[C@H]1C(C(=O)c2ccc(O)cc2)C2(N[C@@H]1c1ccccc1)C(=O)Nc1ccc(Br)cc12 (some centres not stated) — outcome?
active

Assay result, entry C=C1CCC2C3(C)COC(c4c(F)cccc4F)OC3CCC2(C)C1CC(O)C1=CCOC1=O (configuration not stated) — outcome?
inactive

Assay result, entry NC(=Nc1ccc(OCCCCCCCCn2ccnn2)cc1)c1ccccc1 — outcome?
inactive

Assay result, entry CS(=O)(=O)Nc1ccc(-c2ccc3c(c2)ncn3-c2ccc(NC(=O)Nc3ccc(Cl)c(C(F)(F)F)c3)cc2)cc1 — outcome?
active

Assay result, entry O=C1Nc2ccc(Cl)cc2/C1=C/c1ccc(OCc2ccccn2)cc1 — outcome?
inactive

Assay result, entry COc1cccc(C(N)=Nc2ccc(OCCCCCCn3cncn3)cc2)c1 — outcome?
inactive

Assay result, entry CN1CCN(c2ccc(C(=O)/C=C/c3ccc(C#N)cc3)cc2)CC1 — outcome?
active

Assay result, entry CC1(C)CC[C@]2(C(=O)O)CC[C@]3(C)C(=CC[C@@H]4[C@@]5(C)C/C(=C/c6ccncc6)[C@H](O)C(C)(C)[C@@H]5CC[C@]43C)[C@@H]2C1 — outcome?
inactive

Assay result, entry CC(=O)Nc1nc(-c2ccc(N3CCN(C)CC3)c(NS(=O)(=O)c3cccc4c(N(C)C)cccc34)c2)cs1 — outcome?
inactive

Assay result, entry Cc1cc(C)nc(NS(=O)(=O)c2ccc(N/C(N)=N/c3nccc(-c4cccs4)n3)cc2)n1 — outcome?
inactive

Assay result, entry O=C1Nc2ccc(F)cc2/C1=C/c1cccc(OCc2ccccc2)c1 — outcome?
active
